target: 5-HT1A receptor (Rattus norvegicus); construct: The brain is dissected and the cortex is homogenized in 20 volumes of Tris-HCl buffer; from tissue; host or cells: rat cerebral cortex homogenate; assay: Affinity for the receptor 5-HT1A: displacement of [3H]8-OH-DPAT in rat cerebral cortex; assay type: binding; details: [3H]8-OH-DPAT 0.2 nM, 23° C., 30 minutes, average of 3 to 5 experiments, read-out: pKi (affinity for the receptor 5-HT1A) (converted)
Sequence (P19327 whole entry): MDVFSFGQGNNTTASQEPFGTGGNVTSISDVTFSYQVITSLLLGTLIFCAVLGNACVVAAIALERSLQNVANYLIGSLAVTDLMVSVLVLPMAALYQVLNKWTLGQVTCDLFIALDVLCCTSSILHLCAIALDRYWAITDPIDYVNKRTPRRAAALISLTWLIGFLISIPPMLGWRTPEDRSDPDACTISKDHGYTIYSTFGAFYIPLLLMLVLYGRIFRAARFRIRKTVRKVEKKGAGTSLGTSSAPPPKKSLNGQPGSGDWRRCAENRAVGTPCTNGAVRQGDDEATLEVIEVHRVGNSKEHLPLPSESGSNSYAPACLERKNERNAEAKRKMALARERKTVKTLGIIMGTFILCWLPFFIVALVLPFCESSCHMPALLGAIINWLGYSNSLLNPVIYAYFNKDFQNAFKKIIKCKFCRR
EXPERIMENTAL_READOUT: log10 of Ki (log10 of the value in nM)
In plain terms, each number is the log10 of measured Ki in nM.

For orientation, consider the following solved cases.
{"columns": ["MOLECULE", "EXPERIMENTAL_READOUT", "OBSERVED"],
 "data": [
  ["Cn1nc(NCCCN2CCN(c3cccc(C(F)(F)F)c3)CC2)c(=O)n(C)c1=O", "log10 of Ki", 1.21],
  ["COc1ccccc1N1CCN(CCCCNc2nn(C)c(=O)n(C)c2=O)CC1", "log10 of Ki", -0.21],
  ["CCCCn1c(=O)[nH]nc(NCCCCN2CCN(c3cccc(C(F)(F)F)c3)CC2)c1=O", "log10 of Ki", 1.10],
  ["Cn1nc(NCCCNCC2COc3ccccc3O2)c(=O)n(C)c1=O (stereo not shown)", "log10 of Ki", 0.58],
  ["Cn1nc(NCCCCN2CCN(c3cccc(Cl)c3)CC2)c(=O)n(C)c1=O", "log10 of Ki", -0.40],
  ["Cn1nc(NCCCCNCC2COc3ccccc3O2)c(=O)n(C)c1=O (stereo not shown)", "log10 of Ki", 0.43]
]}

Which log10 of Ki is listed for Cn1nc(NCCCCN2CCN(c3cccc(C(F)(F)F)c3)CC2)c(=O)n(C)c1=O ? -0.50

The values you see were collected from patent US5591743A.
